- Species: Rattus norvegicus
- method: DrugMatrix - Regimen: Daily Repeat
- Assay type: toxicity, organism-based, Sprague-Dawley
- Set-up: regimen Daily Repeat, gender Male, age 6-8 weeks
- experimental_setup: in vivo, iv, 0 mg/kg, 72 h, tissue Blood, dose level Control, time 3 day, vehicle 100 % SALINE
measurement_type: ABSOLUTE SEGMENTED NEUTROPHIL
# output: number + unit

Q) Note down ABSOLUTE SEGMENTED NEUTROPHIL recorded for NCC[C@H](O)C(=O)N[C@@H]1C[C@H](N)[C@@H](O[C@H]2O[C@H](CN)[C@@H](O)[C@H](O)[C@H]2O)[C@H](O)[C@H]1O[C@H]1O[C@H](CO)[C@@H](O)[C@H](N)[C@H]1O [AMIKACIN]
A) 661.17 CELLS/uL

Q) For the compound CC[C@@]1(O)C(=O)OCc2c1cc1n(c2=O)Cc2cc3ccccc3nc2-1 [CAMPTOTHECIN] , give its measured ABSOLUTE SEGMENTED NEUTROPHIL value.
A) 702.17 CELLS/uL

Q) // fetch ABSOLUTE SEGMENTED NEUTROPHIL given entry CN(N=O)C(=O)N[C@@H](C=O)[C@@H](O)[C@H](O)[C@H](O)CO [STREPTOZOCIN]
A) 1220.5 CELLS/uL

Q) Complete the entry with ABSOLUTE SEGMENTED NEUTROPHIL for CC1(C)S[C@@H]2[C@H](NC(=O)[C@H](NC(=O)N3CCNC3=O)c3ccccc3)C(=O)N2[C@H]1C(=O)O [AZLOCILLIN]
A) 709.83 CELLS/uL

----------
Kindly supply the reported MEAN CORPUSCULAR HEMOGLOBIN CONCENTRATION values for the records listed here.
- Organism: Rattus norvegicus
- method: DrugMatrix - Regimen: Daily Repeat
- Type: toxicity, organism-based, Sprague-Dawley
- Parameters: regimen Daily Repeat, gender Male, age 6-8 weeks
- experimental_setup: in vivo, po, 1500 mg/kg, 120 h, tissue Blood, route oral GAVAGE, dose level High, time 5 day, vehicle .5 % CMC
Value expressed in G/DL; do not type the unit.

Q) Consider the molecule COC(=O)c1ccc(O)cc1 [METHYLPARABEN] and give its recorded MEAN CORPUSCULAR HEMOGLOBIN CONCENTRATION.
A) 39.77

Q) Dear colleague, please send me the reported MEAN CORPUSCULAR HEMOGLOBIN CONCENTRATION for NS(=O)(=O)c1cc2c(cc1Cl)NCNS2(=O)=O [HYDROCHLOROTHIAZIDE] when you can.
A) 40.23

Q) Identify the reported MEAN CORPUSCULAR HEMOGLOBIN CONCENTRATION for the following entry. O=C1CCc2cc(OCCCCc3nnnn3C3CCCCC3)ccc2N1 [CILOSTAZOL]
A) 30.67

Q) Indicate its recorded MEAN CORPUSCULAR HEMOGLOBIN CONCENTRATION; the molecule in question is CCOC(=O)[C@H](CCc1ccccc1)N[C@@H](C)C(=O)N1[C@H](C(=O)O)C[C@@H]2CCC[C@@H]21
A) 39.37

----------
- Species: Rattus norvegicus
- method: DrugMatrix - Regimen: Daily Repeat
- Type: toxicity, organism-based, Sprague-Dawley
- Set-up: regimen Daily Repeat, gender Male, age 6-8 weeks
- experimental_setup: in vivo, po, 1500 mg/kg, 72 h, tissue Plasma, route oral GAVAGE, dose level High, time 3 day, vehicle .5 % CMC
measurement_type: CHLORIDE (MEQ/L)
Respond with the bare value in MEQ/L.

Q) Item O=C1CCc2cc(OCCCCc3nnnn3C3CCCCC3)ccc2N1 : provide CHLORIDE
A) 95

Q) Let me know recorded CHLORIDE for CCOC(=O)[C@H](CCc1ccccc1)N[C@@H](C)C(=O)N1[C@H](C(=O)O)C[C@@H]2CCC[C@@H]21 , thanks.
A) 104.67

Q) Provide CHLORIDE value for the following molecule: NS(=O)(=O)c1cc2c(cc1Cl)NCNS2(=O)=O [HYDROCHLOROTHIAZIDE]
A) 95.33

Q) Return CHLORIDE (reported value) for this molecule: COC(=O)c1ccc(O)cc1
A) 95.67

----------
- Species: Rattus norvegicus
- method: DrugMatrix - Regimen: Daily Repeat
- Format: toxicity, organism-based, Sprague-Dawley
- Design: regimen Daily Repeat, gender Male, age 6-8 weeks
- experimental_setup: in vivo, po, 0 mg/kg, 120 h, tissue Blood, route oral GAVAGE, dose level Control, time 5 day, vehicle 100 % WATER
measurement_type: MONOCYTE (%)
# unit: % | format: bare number

Q) State, in one line, measured MONOCYTE of CC1(C)S[C@@H]2[C@H](NC(=O)[C@H](N)c3ccc(O)cc3)C(=O)N2[C@H]1C(=O)O [AMOXICILLIN]
A) 1.33

Q) Consider the compound NCC1(CC(=O)O)CCCCC1 [GABAPENTIN] . State its measured MONOCYTE.
A) 1

Q) For the compound NC(=O)c1ncn([C@@H]2O[C@H](CO)[C@@H](O)[C@H]2O)n1 [RIBAVIRIN] , report MONOCYTE.
A) 1.33

Q) Respond only with MONOCYTE recorded for Cn1cnc([N+](=O)[O-])c1Sc1ncnc2nc[nH]c12 [AZATHIOPRINE]
A) 1

Q) Query MONOCYTE for COc1ccc(C(CN(C)C)C2(O)CCCCC2)cc1 (centres undefined) [VENLAFAXINE]
A) 0.5

Q) Find the measured MONOCYTE of NNC(=O)c1ccncc1 [ISONIAZID] and report it.
A) 3.17

Q) Please report the measured MONOCYTE for Fc1ccc([C@@H]2CCNC[C@H]2COc2ccc3c(c2)OCO3)cc1 [PAROXETINE]
A) 0.67

Q) Name the recorded MONOCYTE of the item C[C@]12Cc3c[nH]nc3C[C@@H]1CC[C@@H]1[C@@H]2CC[C@@]2(C)[C@H]1CC[C@]2(C)O [STANOZOLOL] in your answer.
A) 0.67

Q) // Input: CC(C)(S)[C@@H](N)C(=O)O [PENICILLAMINE] . Output its MONOCYTE only.
A) 0.17

Q) // fetch MONOCYTE given entry CN1CCN(C(=O)OC2c3nccnc3C(=O)N2c2ccc(Cl)cn2)CC1 (centres undefined) [ZOPICLONE]
A) 1.67

Q) Find the measured MONOCYTE of O=C1NC(=O)C(c2ccccc2)(c2ccccc2)N1 [PHENYTOIN] and report it.
A) 2.17

Q) Give the reported value of MONOCYTE for this record: CNCCC=C1c2ccccc2CCc2ccccc21 [NORTRIPTYLINE]
A) 2.17

Q) Supply MONOCYTE value. Item: CC1COc2c(N3CCN(C)CC3)c(F)cc3c(=O)c(C(=O)O)cn1c23 (centres undefined) [OFLOXACIN]
A) 1

Q) Specify MONOCYTE for Nc1ccc(S(=O)(=O)Nc2ccnn2-c2ccccc2)cc1 [SULFAPHENAZOLE] and stop.
A) 1.17

Q) Tell me its MONOCYTE given Clc1ccc(C(c2ccccc2Cl)C(Cl)Cl)cc1 (centres undefined) [MITOTANE] as the entry.
A) 0.83

Q) State its MONOCYTE: CC(CCc1ccccc1)NCC(O)c1ccc(O)c(C(N)=O)c1 (centres undefined) [LABETALOL]
A) 0.83

Q) Give recorded MONOCYTE. COc1cccc(C2(O)CCCCC2CN(C)C)c1 (centres undefined) [TRAMADOL]
A) 0.67

Q) State, in one line, measured MONOCYTE of CN1CCC[C@H]1c1cccnc1 [NICOTINE]
A) 1

Q) Answer with the recorded MONOCYTE of Cc1cc(NS(=O)(=O)c2ccc(N)cc2)no1 [SULFAMETHOXAZOLE] only.
A) 0.5

----------
- Species on record: Rattus norvegicus
- method: DrugMatrix - Regimen: Daily Repeat
- Assay type: toxicity, organism-based, Sprague-Dawley
- Set-up: regimen Daily Repeat, gender Male, age 6-8 weeks
- experimental_setup: in vivo, po, 0 mg/kg, 72 h, tissue Plasma, route oral GAVAGE, dose level Control, time 3 day, vehicle 100 % WATER
measurement_type: ALKALINE PHOSPHATASE (u/L)
Field format: number, assumed u/L, no unit text.

Q) Provide measured ALKALINE PHOSPHATASE value, entry: NCC1(CC(=O)O)CCCCC1 [GABAPENTIN]
A) 338.83

Q) Look up ALKALINE PHOSPHATASE of Clc1ccc(C(c2ccccc2Cl)C(Cl)Cl)cc1 (stereo not given) [MITOTANE] and report it.
A) 416

Q) Using the record for O=C1NC(=O)C(c2ccccc2)(c2ccccc2)N1 [PHENYTOIN] , state its measured ALKALINE PHOSPHATASE.
A) 340.17

Q) // fetch ALKALINE PHOSPHATASE given entry COc1cccc(C2(O)CCCCC2CN(C)C)c1 (stereo not given) [TRAMADOL]
A) 337

Q) Using known records, supply ALKALINE PHOSPHATASE for CN1CCN(C(=O)OC2c3nccnc3C(=O)N2c2ccc(Cl)cn2)CC1 (stereo not given) [ZOPICLONE]
A) 395

Q) Look up and state reported ALKALINE PHOSPHATASE for Fc1ccc([C@@H]2CCNC[C@H]2COc2ccc3c(c2)OCO3)cc1 [PAROXETINE]
A) 337

Q) For the compound CN1CCC[C@H]1c1cccnc1 [NICOTINE] , give its measured ALKALINE PHOSPHATASE value.
A) 363.5

Q) Output measured ALKALINE PHOSPHATASE for this item: Nc1ccc(S(=O)(=O)Nc2ccnn2-c2ccccc2)cc1 [SULFAPHENAZOLE]
A) 346.5

Q) Entry Cn1cnc([N+](=O)[O-])c1Sc1ncnc2nc[nH]c12 [AZATHIOPRINE] needs its ALKALINE PHOSPHATASE filled in; supply it.
A) 334.83

Q) Specify ALKALINE PHOSPHATASE for COc1cc2c(N3CCN(C(=O)Nc4ccc(OC(C)C)cc4)CC3)ncnc2cc1OCCCN1CCCCC1 [TANDUTINIB] and stop.
A) 369

Q) Report measured ALKALINE PHOSPHATASE; entry is NNC(=O)c1ccncc1 [ISONIAZID]
A) 331

Q) Tell us which ALKALINE PHOSPHATASE value is on record for CC1COc2c(N3CCN(C)CC3)c(F)cc3c(=O)c(C(=O)O)cn1c23 (stereo not given) [OFLOXACIN]
A) 363.5

Q) Report measured ALKALINE PHOSPHATASE; entry is CC1(C)S[C@@H]2[C@H](NC(=O)[C@H](N)c3ccc(O)cc3)C(=O)N2[C@H]1C(=O)O [AMOXICILLIN]
A) 400.83

Q) Retrieve ALKALINE PHOSPHATASE measured for CC(C)(S)[C@@H](N)C(=O)O [PENICILLAMINE] and print it.
A) 383.83

Q) Given Cc1cc(NS(=O)(=O)c2ccc(N)cc2)no1 [SULFAMETHOXAZOLE] , respond with its ALKALINE PHOSPHATASE.
A) 372

Q) Quickly give me recorded ALKALINE PHOSPHATASE for COc1ccc(C(CN(C)C)C2(O)CCCCC2)cc1 (stereo not given) [VENLAFAXINE]
A) 372

Q) Look up and state reported ALKALINE PHOSPHATASE for CNCCC=C1c2ccccc2CCc2ccccc21 [NORTRIPTYLINE]
A) 340.17

Q) Report measured ALKALINE PHOSPHATASE; entry is C[C@]12Cc3c[nH]nc3C[C@@H]1CC[C@@H]1[C@@H]2CC[C@@]2(C)[C@H]1CC[C@]2(C)O [STANOZOLOL]
A) 337

Q) Determine from records and report ALKALINE PHOSPHATASE for NC(=O)c1ncn([C@@H]2O[C@H](CO)[C@@H](O)[C@H]2O)n1 [RIBAVIRIN]
A) 390.83

Q) For the compound CC(CCc1ccccc1)NCC(O)c1ccc(O)c(C(N)=O)c1 (stereo not given) [LABETALOL] , give its measured ALKALINE PHOSPHATASE value.
A) 334.17
